Reference source for all entries: the supplement of paper PMC8728848

Form field: glycan array binding signal (z-score) (one value per entry).
molecular target: Fuc(a1-2)Gal(b1-3)GalNAc(b1-3)Gal; assay: glycan array binding signal (z-score within array); higher = stronger binding; conditions: glycan notation: IUPAC condensed, linker removed
Shown is part of a subset that was picked to be rich in the strongest signals.

BINDER	glycan array binding signal (z-score)
CTAEGIKKFEGDGYELFKDNFPAGEKFDNDDTNDQFYTVIF [MUB40 (Lactobacillus reuteri)]	-0.251
SLLPI (Homo sapiens), Q8IXA5 (protein) MVSALRGAPLIRVHSSPVSSPSVSGPRRLVSCLSSQSSALSQSGGGSTSAAGIEARSRALRRRWCPAGIMLLALVCLLSCLLPSSEAKLYGRCELARVLHDFGLDGYRGYSLADWVCLAYFTSGFNAAALDYEADGSTNNGIFQINSRRWCSNLTPNVPNVCRMYCSDLLNPNLKDTVICAMKITQEPQGLGYWEAWRHHCQGKDLTEWVDGCDF	1.93
Cohesin-hDECTIN-1 (Homo sapiens) (protein) LDITSHHHHHHDDLDAVRIKVDTVNAKPGDTVRIPVRFSGIPSKGIANCDFVYSYDPNVLEIIEIEPGDIIVDPNPDKSFDTAVYPDRKIIVFLFAEDSGTGAYAITKDGVFATIVAKVKEGAPNGLSVIKFVEVGGFANNDLVEQKTQFFDGGVNVGDTTEPATPTTPVTTPTTTDDLDAASSSPCPPNWIIYEKSCYLFSMSLNSWDGSKRQCWQLGSNLLKIDSSNELGFIVKQVSSQPDNSFWIGLSRPQTEVPWLWEDGSTFSSNLFQIRTTATQENPSPNCVWIHVSVIYDQLCSVPSYSICEKKFM	1.86
S100A12 (Homo sapiens), P80511 (protein) MTKLEEHLEGIVNIFHQYSVRKGHFDTLSKGELKQLLTKELANTIKNIKDKAVIDEIFQGLDANQDEQVDFQEFISLVAIALKAAHYHTHKE	1.87
MAL (Maackia amurensis) (protein) SDELSFTINNFMPNQGDLLFQGVATVSPTGVLQLTSEENGQPLEYSVGRVLYTAPVRIWDSTTGAVASFSTSFTFVVKAARGASDGLAFFLAPPDSQIPSGSVSKYLGLFNNSNSDSSNQIVAVEFDTYFGHSYDPWDPNYRHIGIDVNGIESIKTVQWDWINGGVAFATITYLAPNKTLIASLVYPSNQTSFIVAASVDLKEILPEWVRVGFSAATGAPKAVETHDVRSWSFTSTLEANSPADVDN	-0.382
Siglec-H (Mus musculus), Q4QQK7 (protein) MLLSRLLPLLWVLKWASGNCFILPREVIGTYPSLTLELQSVTVQEGLCVLVPCHLIEYPMNRWSDAAFGYWFHEGENTHPDSLVATNKPYQLVQKEMQSRFHFSGDCSLDIRDAQKGDNGSYFFRLEKGGKTWNFCEERISVHVTDLTHSPNISIPQTLELGRPTNVMCSVPWACERGTPPIFSWMSAALISLGPTTTLSSVLTLTPRLQDHGTNLTCQVTFPGAGVTVQKTIQLNVTYNSQNSTAHVSGRVGPGKPRPLADVVQVAMGEAAIKFLLLGICFFFLSKRSHTKRVERPATHMDQAHAVMD	2.48
SLLPI (Mus musculus), Q9D9X8 (protein) MGICMSMYTQVLVPVDADGDHHILWSRFYERWGSCFNPCAGLVNCLPPHSSALYLCHRMEARSRAPRRQLCPPGITWLALAYLLSCLLASSKAKVFSRCELAKEMHDFGLDGYRGYNLADWVCLAYYTSGFNTNAVDHEADGSTNNGIFQISSRRWCRTLASNGPNLCRIYCTDLLNNDLKDSIVCAMKIVQEPLGLGYWEAWRHHCQGRDLSDWVDGCDF	0.084
Arath Fbox LD (Arabidopsis thaliana) (protein) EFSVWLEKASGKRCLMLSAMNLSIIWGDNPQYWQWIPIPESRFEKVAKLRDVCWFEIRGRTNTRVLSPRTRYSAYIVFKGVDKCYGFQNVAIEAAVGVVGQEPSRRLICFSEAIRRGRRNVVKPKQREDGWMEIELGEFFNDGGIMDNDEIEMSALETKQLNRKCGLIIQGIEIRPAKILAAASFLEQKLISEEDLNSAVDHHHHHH	-0.344
rMpL (Macrolepiota procera) (protein) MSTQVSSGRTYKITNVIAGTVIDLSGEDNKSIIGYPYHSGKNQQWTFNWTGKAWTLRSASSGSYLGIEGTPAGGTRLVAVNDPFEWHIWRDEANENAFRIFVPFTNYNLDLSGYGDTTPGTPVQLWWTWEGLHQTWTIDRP	-0.272
TAL6-4LysM (Trichoderma atroviride) (protein) AADSIPSISPTGIITPTPTQSGMVSNCNKFYDVHSNDGCSAIASSQHVDLSSLYKWNPAIKTDCSGLQASVYVCIGILTTSMSTTSKLPTTTSKPSTTSKPPTGITTPTPTQSGMVKNCNKFYDVHSGDGCSAIASSQKVNLSSFYLWNPAVKTDCSGLQASVFVCIGTLTTSMSTTTSKLPTTTSKPSTTSKPPTGIITPTPTQNGMVKNCNKFYDVHSGDGCSAIASSQKVNLSSFYLWNPAVKTDCSGLQASVFVCVGTATTTTAAGITTPTPTQSGMVSGCNKFYDVHAGDGCSAIASSQKIALSSLYKWNPAVKTDCSGLQASVYICIGVGNAAAARVTGALEQKLISEEDLNSAVDHHHHHH	-0.335
